// data source = the NIST ThermoML archive (doi:10.1016/j.jct.2015.07.046)

- assay-text: activity coefficient (dimensionless); of the first substance listed, at infinite dilution; xn = mol fraction of the nth substance listed
- assay-setup: 363.15 K; 101.3 kPa; Liquid; Chromatography; x1 = 0
Response field label: string, one of label 1 (activity coefficient strictly below 50) or label 0.

Answered cases to consult:
{"columns": ["compound", "group"],
 "data": [
  ["Cc1cccc(C)c1 [1,3-dimethylbenzene] + CCn1cc[n+](C)c1.COP(=O)([O-])OC", "label 1"],
  ["Cc1ccccc1C [1,2-dimethylbenzene] + CCn1cc[n+](C)c1.COP(=O)([O-])OC", "label 1"],
  ["CCCCCCCCC [nonane] + CCn1cc[n+](C)c1.COP(=O)([O-])OC", "label 0"],
  ["CC(C)CC(C)(C)C [2,2,4-trimethylpentane] + COP(=O)([O-])OC.Cn1cc[n+](C)c1", "label 0"],
  ["CC1CCCCC1 [methylcyclohexane] + COP(=O)([O-])OC.Cn1cc[n+](C)c1", "label 0"],
  ["CCCCCCCC [octane] + COP(=O)([O-])OC.Cn1cc[n+](C)c1", "label 0"]
]}

Record CCCCCCCCCC [decane] + CCn1cc[n+](C)c1.COP(=O)([O-])OC : is its activity coefficient strictly below 50?
label 0

Record Cc1ccccc1 [toluene] + COP(=O)([O-])OC.Cn1cc[n+](C)c1 : is its activity coefficient strictly below 50?
label 1

Record C=Cc1ccccc1 [styrene] + COP(=O)([O-])OC.Cn1cc[n+](C)c1 : is its activity coefficient strictly below 50?
label 1

Record CCCCC [pentane] + CCn1cc[n+](C)c1.COP(=O)([O-])OC : is its activity coefficient strictly below 50?
label 0

Record CCCCCCC [heptane] + CCn1cc[n+](C)c1.COP(=O)([O-])OC : is its activity coefficient strictly below 50?
label 0

Record Cc1ccc(C)cc1 [1,4-dimethylbenzene] + COP(=O)([O-])OC.Cn1cc[n+](C)c1 : is its activity coefficient strictly below 50?
label 1

Record Cc1ccccc1C [1,2-dimethylbenzene] + COP(=O)([O-])OC.Cn1cc[n+](C)c1 : is its activity coefficient strictly below 50?
label 1

Record CCCCCCCCC [nonane] + COP(=O)([O-])OC.Cn1cc[n+](C)c1 : is its activity coefficient strictly below 50?
label 0

Record Cc1ccccc1 [toluene] + CCn1cc[n+](C)c1.COP(=O)([O-])OC : is its activity coefficient strictly below 50?
label 1
